Entries annotated with measured TGI
Test system: A549 NSCLC
Assay name: NCI tumour cell line growth inhibition, 48 h
Attribute measured: TGI

[[record]]
compound = "N#C/C(C(=O)NCc1ccccc1)=C(/N)N1CCCC1"
result = "> 100 µM"

[[record]]
compound = "Cc1c(C(=O)NNc2ccccc2)n2c(=S)[nH]nc2c2ccccc12"
result = "> 100 µM"

[[record]]
compound = "CCOC(=O)[C@@H](Cc1ccc(CCl)cc1)NC(C)=O"
result = "> 100 µM"

[[record]]
compound = "CC1=NOC(=O)/C1=C/c1ccc2c(c1)OCO2"
result = "> 100 µM"

[[record]]
compound = "O=C1C=CC(=O)c2c(O)c(N3CCC[C@@H]3CO)c(Cl)c(O)c21"
result = "4.19 µM"

[[record]]
compound = "CCN(Cc1c(F)cccc1Cl)c1ccc(CO)c(Cl)c1"
result = "16.6 µM"

[[record]]
compound = "CC(=O)NN1C(=O)C(Cc2ccccc2)c2ccccc21 (centres undefined)"
result = "> 100 µM"

[[record]]
compound = "OC(CC(O)(C(F)(F)Cl)C(F)(F)Cl)c1ccccc1 (centres undefined)"
result = "> 10 µM"

[[record]]
compound = "O=[N+]([O-])c1ccc(-c2csc(=[N+]3CCCCC3)s2)cc1"
result = "> 100 µM"

[[record]]
compound = "COc1ccc2nc3cc(Cl)ccc3c(Nc3cc(CN4CCCC4)c(O)c(CN4CCCC4)c3)c2n1"
result = "22 µM"

[[record]]
compound = "Cc1cc(-c2cc(C(C)(C)C)c(O)c(C(C)(C)C)c2)c(C)cc1-c1cc(C(C)(C)C)c(O)c(C(C)(C)C)c1"
result = "> 100 µM"

[[record]]
compound = "COC(=O)N[C@H]1CCc2c(Cl)c(OC)c(OC)c(OC)c2-c2ccc(SC)c(=O)cc21"
result = "> 100 µM"

[[record]]
compound = "CCOC(=O)CN1C(=O)c2cc([N+](=O)[O-])cc3cc([N+](=O)[O-])cc(c23)C1=O"
result = "> 100 µM"

[[record]]
compound = "CCOC(=O)c1csc(NC(=O)CCN2CCCC2)n1"
result = "> 100 µM"

[[record]]
compound = "CSc1ccc(/C=C2\\N=C(c3ccccc3)N(c3nc4cc(Cl)c(F)cc4s3)C2=O)cc1"
result = "> 100 µM"

[[record]]
compound = "Cc1ccc(C(=O)NC2CC2)cc1-c1ccc2[nH]ncc2c1"
result = "> 25 µM"

[[record]]
compound = "Cc1cc(O)c(-c2ccc([C@@H](C)CN(C)C)cc2)c2c1[nH]c(=O)c1sccc12"
result = "14.6 µM"

[[record]]
compound = "CCCCNC(=O)Cn1c2ccc(Br)cc2c2nc3ccccc3nc21"
result = "> 100 µM"

[[record]]
compound = "C=C(C)[C@@H]1CC[C@]2(C(=O)NS(=O)(=O)c3ccccc3)CC[C@]3(C)[C@H](CC[C@@H]4[C@@]5(C)CC[C@H](OC(=O)NS(=O)(=O)c6ccccc6)C(C)(C)[C@@H]5CC[C@]43C)[C@@H]12"
result = "21.8 µM"


----------
Test system: SN12C renal
Assay name: NCI tumour cell line growth inhibition, 48 h; in the data active = GI50 below about 0.43 µM; inactive = the rest
Classes used: active, inactive

[[record]]
compound = "CC(C)(C)OC(=O)N[C@@H](Cc1ccccc1)C(=O)N(Cc1ccccc1)C1(C(=O)NCc2ccccc2)CCN(Cc2ccccc2)CC1"
assigned_category = "inactive"

[[record]]
compound = "COc1cc2c3c(n(CCCNCCCN)c(=O)c2cc1OC)-c1cc2c(cc1C3=O)OCO2"
assigned_category = "inactive"

[[record]]
compound = "CC[PH+](CC)CC.[Cl][Au]"
assigned_category = "inactive"

[[record]]
compound = "C=C1CCC2C3(C)COC(c4ccccc4Cl)OC3CCC2(C)C1/C=C/C1=CCOC1=O (stereo unspecified)"
assigned_category = "inactive"

[[record]]
compound = "CCn1c(-c2nonc2N)nc2c(N3CCCC3)nccc21"
assigned_category = "inactive"

[[record]]
compound = "COc1ccc2[nH]c(C(=O)OCc3ccc4c(Cl)cc(Cl)c(O)c4n3)cc2c1"
assigned_category = "inactive"

[[record]]
compound = "CCOC(=O)C1=C(C)NC(c2ccco2)=C(C#N)C1c1cccc([N+](=O)[O-])c1 (stereo unspecified)"
assigned_category = "active"

[[record]]
compound = "Nc1cccc2c1C(=O)c1cccc(NC(=O)c3ccccc3)c1C2=O"
assigned_category = "inactive"

[[record]]
compound = "CCCCn1c(=O)c(/C=C/C(=O)/C=C/c2cc3ccccc3n(CCCC)c2=O)cc2ccccc21"
assigned_category = "inactive"

[[record]]
compound = "CC(=O)[O-].N.N.N.N.[Co+3].[O-][Cl+3]([O-])([O-])[O-].[OH3+]"
assigned_category = "inactive"

[[record]]
compound = "CC[C@H](C)[C@H](NC(=O)c1cccn1C)C(=O)N(C)[C@H](C[C@@H](OC(C)=O)c1nc(C(=O)N[C@@H](Cc2ccccc2)C[C@H](C)C(=O)OC)cs1)C(C)C"
assigned_category = "active"


----------
System: MALME-3M melanoma
Assay name: NCI tumour cell line growth inhibition, 48 h
Entries annotated with measured TGI
Attribute measured: TGI

[[record]]
molecule = "O=c1c2cc3ccccc3n2c(=O)c2cc3ccccc3n12"
attribute_measured = "TGI"
result = "> 100 µM"

[[record]]
molecule = "COc1ccc2c(c1)CN1CCc3c(cc(OC)c(OC)c3OC)C1C2 (stereo not given)"
attribute_measured = "TGI"
result = "> 100 µM"

[[record]]
molecule = "O=C([C@H](O)[C@@H](O)c1cccc(Cl)c1)C12CC3CC(CC(C3)C1)C2"
attribute_measured = "TGI"
result = "18.2 µM"

[[record]]
molecule = "Nc1c2ccccc2nc2c(C(=O)Nc3ccc(S(N)(=O)=O)cc3)cccc12"
attribute_measured = "TGI"
result = "> 100 µM"

[[record]]
molecule = "CCC1(CC)C(=O)N(C(=O)c2cc(OC)c(OC)c(OC)c2)N(C(=O)c2cc(OC)c(OC)c(OC)c2)C1=O"
attribute_measured = "TGI"
result = "> 50 µM"

[[record]]
molecule = "CCC1([N+](=O)[O-])CN(N=O)C1"
attribute_measured = "TGI"
result = "> 100 µM"

[[record]]
molecule = "NC(=O)c1ccc(Cl)c([N+](=O)[O-])c1"
attribute_measured = "TGI"
result = "> 100 µM"

[[record]]
molecule = "O=C[C@@H](CO)O[C@H](C=O)n1cnc2c(=O)[nH]cnc21"
attribute_measured = "TGI"
result = "1300 µM"

[[record]]
molecule = "CC(C)=CCC[C@@H](C)C1=C(Nc2ccccc2F)C(O)=C(C)C(=O)C1=O"
attribute_measured = "TGI"
result = "29.5 µM"

[[record]]
molecule = "CO[P@@]1(=O)O[C@@H](c2ccccc2)[C@H](O)[C@]1(O)c1ccccc1"
attribute_measured = "TGI"
result = "> 100 µM"


----------
Tested on: NCI-H522 lung
Assay name: NCI tumour cell line growth inhibition, 48 h
Attribute measured: TGI

[[record]]
line_notation = "Cc1cc(-c2cc(C(C)(C)C)c(O)c(C(C)(C)C)c2)c(C)cc1-c1cc(C(C)(C)C)c(O)c(C(C)(C)C)c1"
attribute_measured = "TGI"
result = "> 100 µM"

[[record]]
line_notation = "COc1cc(N=Nc2ccc(OC)c(S(=O)(=O)O)c2)c(C)cc1N=Nc1ccc(/C=C/c2ccc(N=[N+]([O-])c3ccc(/C=C/c4ccc(N=Nc5cc(C)c(N=Nc6ccc(OC)c(S(=O)(=O)O)c6)cc5OC)cc4S(=O)(=O)O)c(S(=O)(=O)O)c3)cc2S(=O)(=O)O)c(S(=O)(=O)O)c1"
attribute_measured = "TGI"
result = "> 100 µM"

[[record]]
line_notation = "Cc1c(C(=O)NNc2ccccc2)n2c(=S)[nH]nc2c2ccccc12"
attribute_measured = "TGI"
result = "> 100 µM"

[[record]]
line_notation = "CN1CCN(CCCOc2cc(O)c3c(=O)cc(-c4ccccc4)oc3c2)CC1"
attribute_measured = "TGI"
result = "47 µM"

[[record]]
line_notation = "O/N=C/c1ccc(O)c(O)c1"
attribute_measured = "TGI"
result = "> 100 µM"


----------
Entries annotated with measured TGI
Tested on: SK-OV-3 ovarian
Assay name: NCI tumour cell line growth inhibition, 48 h
Attribute measured: TGI

[[record]]
compound = "COc1ccc(OC(C)C(=O)O)c2c(=O)ccccc12 (stereo not given)"
experimental_system = "SK-OV-3 ovarian"
result = "> 100 µM"

[[record]]
compound = "CN1CCN(CCCOc2cc(O)c3c(=O)cc(-c4ccccc4)oc3c2)CC1"
experimental_system = "SK-OV-3 ovarian"
result = "38.4 µM"

[[record]]
compound = "O=P(O)(O)OCC1OC(n2cnc3c(NCc4ccccc4)ncnc32)C(O)C1O (stereo not given)"
experimental_system = "SK-OV-3 ovarian"
result = "11.1 µM"

[[record]]
compound = "CC1(C)CCC[C@]2(C)c3ccccc3C(=O)CC12 (stereo not given in full)"
experimental_system = "SK-OV-3 ovarian"
result = "> 100 µM"

[[record]]
compound = "O=C1Nc2cc(F)ccc2C1=O"
experimental_system = "SK-OV-3 ovarian"
result = "> 100 µM"

[[record]]
compound = "CNC(=S)N1CCN(C(C)=O)C1=S"
experimental_system = "SK-OV-3 ovarian"
result = "> 100 µM"

[[record]]
compound = "CCN(Cc1c(F)cccc1Cl)c1ccc(CO)c(Cl)c1"
experimental_system = "SK-OV-3 ovarian"
result = "13 µM"

[[record]]
compound = "CC(C)(C)c1ccnc(N=C2N=C(Nc3cc(C(C)(C)C)ccn3)c3ccccc32)c1"
experimental_system = "SK-OV-3 ovarian"
result = "49 µM"

[[record]]
compound = "CC1=CCCC2C(C=O)(C1)CC(C)C2(CO)CC/C(=C/CO)CO (stereo not given)"
experimental_system = "SK-OV-3 ovarian"
result = "> 100 µM"

[[record]]
compound = "NC(=O)c1ccc[n+](C2=C([O-])c3ccccc3C(=O)/C2=N\\S(=O)(=O)c2ccccc2)c1"
experimental_system = "SK-OV-3 ovarian"
result = "> 100 µM"

[[record]]
compound = "Nc1c2ccccc2nc2c(C(=O)Nc3ccc(S(N)(=O)=O)cc3)cccc12"
experimental_system = "SK-OV-3 ovarian"
result = "> 100 µM"

[[record]]
compound = "Cc1cn(S(=O)(=O)c2ccccc2)c2c(OCc3ccccc3)cc(NC(=O)c3cc4cc([N+](=O)[O-])ccc4s3)cc12"
experimental_system = "SK-OV-3 ovarian"
result = "> 100 µM"

[[record]]
compound = "COc1ccc([C@]23CCC4(OCC(C)(C)CO4)[C@H]4CON(O[C@H](O[C@@H]5CCCCC5C(C)(C)c5ccccc5)C2)[C@@H]43)cc1OC (stereo not given in full)"
experimental_system = "SK-OV-3 ovarian"
result = "> 100 µM"

[[record]]
compound = "CSc1ncc2c(n1)-c1ccccc1OC2NC1CC1 (stereo not given)"
experimental_system = "SK-OV-3 ovarian"
result = "> 100 µM"

[[record]]
compound = "C=C1C(=O)O[C@H]2C[C@@H]1C(=O)CC(C)CCCC(C)=CCC[C@@]2(C)O (stereo not given in full)"
experimental_system = "SK-OV-3 ovarian"
result = "> 25 µM"

[[record]]
compound = "CN1c2ccccc2C2=C(c3ccccc3)CC[C@@H](C(=O)N3C4CC5CC[C@@]4(CS3(=O)=O)C5(C)C)[C@@H]21 (stereo not given in full)"
experimental_system = "SK-OV-3 ovarian"
result = "> 100 µM"

[[record]]
compound = "COC(=O)N[C@H]1CCc2c(Cl)c(OC)c(OC)c(OC)c2-c2ccc(SC)c(=O)cc21"
experimental_system = "SK-OV-3 ovarian"
result = "> 100 µM"

[[record]]
compound = "Cc1cccc2c1CC(Cc1ccccc1C(=O)O)C2=O (stereo not given)"
experimental_system = "SK-OV-3 ovarian"
result = "> 100 µM"

[[record]]
compound = "O=c1c2ccc(Cl)cc2oc2c(CNc3ccc(S(=O)(=O)Nc4ncccn4)cc3)cccc12"
experimental_system = "SK-OV-3 ovarian"
result = "> 100 µM"

[[record]]
compound = "COc1cc2c3c(n(CCCNCCCN)c(=O)c2cc1OC)-c1cc2c(cc1C3=O)OCO2"
experimental_system = "SK-OV-3 ovarian"
result = "92.9 µM"

